- Test system: P12-Ichikawa
- Test name: cell viability relative to DMSO control; higher = less cytotoxic
- Condition details: RPMI 5 mM glucose + 10% FBS; 48 h; 5.12 µM
Each entry below lists one item and its recorded cell viability value.
Expressed in %, but write only the number.

Would you please look over these solved cases?
{"Smiles str": "COCCCC/C(=N\\OCCN)c1ccc(C(F)(F)F)cc1", "Units text": "%", "cell viability": 80.3}
{"Smiles str": "O=C(CCCN1CCC(O)(c2ccc(Cl)cc2)CC1)c1ccc(F)cc1", "Units text": "%", "cell viability": 124}

Record request: cell viability value, item COc1cc(C[C@@H](CO)[C@H](CO)Cc2ccc(O)c(OC)c2)ccc1O
114

Record request: cell viability value, item Cc1nc2ccc(CN(C)c3ccc(C(=O)N[C@@H](CCC(=O)O)C(=O)O)s3)cc2c(=O)[nH]1
38.2

Record request: cell viability value, item CCC[C@H](Nc1nc(-c2ccc(NC(=O)NCC)c(OC)c2)ncc1C)c1cccnc1
8.89

Record request: cell viability value, item CCC(=O)O[C@@]1(CC[C@H]2[C@@H]3CCC/4=C/C(=O)CC[C@]4(C)[C@H]3CC[C@]12C)C(=O)CO
106

Record request: cell viability value, item C[C@]12CC[C@H]3[C@@H](CC[C@@]45O[C@@H]4C(O)=C(C#N)C[C@]35C)[C@@H]1CC[C@@H]2O
116

* * *

- Test system: P12-Ichikawa
- Test name: cell viability relative to DMSO control; higher = less cytotoxic
- Condition details: RPMI 5 mM glucose + 10% dialyzed FBS; 48 h; 46.1 µM
# note: exactly 70% is not below, so it is no (0); use yes (1) for cell viability strictly under it

{"Compound": "Clc1ccc(CCC(Cn2ccnc2)Sc2c(Cl)cccc2Cl)cc1 (stereo not drawn)", "Class label": "yes (1)"}
{"Compound": "COc1ccc(/C=C/C(=O)Nc2ccccc2C(=O)O)cc1OC", "Class label": "no (0)"}
{"Compound": "COCC(=O)NC/C=C/c1ccc2ncnc(Nc3ccc(Oc4ccc(C)nc4)c(C)c3)c2c1", "Class label": "yes (1)"}
{"Compound": "CN(CC(=O)N(Cc1ccc(C2CCCCC2)cc1)c1ccc(C(=O)O)c(O)c1)[S+](=O)([O-])c1c(F)c(F)c(F)c(F)c1F", "Class label": "yes (1)"}
{"Compound": "C#CCC(Cc1cnc2nc(N)nc(N)c2n1)c1ccc(C(=O)N[C@@H](CCC(=O)O)C(=O)O)cc1 (stereo partly drawn)", "Class label": "yes (1)"}
{"Compound": "Cc1nc(-c2ccc(-c3ccc(C(=O)N4CCc5cc6c(cc54)C4(CCN(C)CC4)CO6)cc3)c(C)c2)no1", "Class label": "no (0)"}

Turning to the following compound.
Does the reported cell viability of COCCCC/C(=N\OCCN)c1ccc(C(F)(F)F)cc1 stay below 70%?
yes (1)

* * *

Each entry below lists one item and its recorded AUC of viability dose-response curve value.
- Tested on: NOMO1
- Test name: AUC of viability dose-response curve (% viability x log10 dose units); higher = less sensitive
- Condition details: HPLM + 10% dialyzed FBS; 48 h
Please reply with the value in numeric form only.

Record request: AUC of viability dose-response curve value, item OC[C@H]1OC(O)C[C@@H](O)[C@@H]1O (some centres undefined)
463

Record request: AUC of viability dose-response curve value, item COc1cc(N2CCN(C)CC2)ccc1Nc1nc(N)c(C(=O)c2c(Cl)cccc2Cl)s1
456

Record request: AUC of viability dose-response curve value, item C[C@H](NC(=O)[C@@H](O)c1cc(F)cc(F)c1)C(=O)N[C@@H]1C(=O)N(C)c2ccccc2-c2ccccc21
402

Record request: AUC of viability dose-response curve value, item CC(C)c1cccc(C(C)C)c1O
463

* * *

Each entry below lists one item and its recorded cell viability value.
- Tested on: NOMO1
- Test name: cell viability relative to DMSO control; higher = less cytotoxic
- Condition details: HPLM + 10% dialyzed FBS; 48 h; 46.1 µM
Be sure to follow the number with its unit.

Would you please look over these solved cases?
{"Smiles str": "CC[C@H]1OC(=O)[C@H](C)[C@@H](O[C@H]2C[C@@](C)(OC)[C@@H](O)[C@H](C)O2)[C@H](C)[C@@H](O[C@@H]2O[C@H](C)C[C@H](N(C)C)[C@H]2O)[C@](C)(O)C[C@@H](C)/C(=N\\OCOCCOC)[C@H](C)[C@@H](O)[C@]1(C)O", "Test system": "NOMO1", "cell viability": "85.5%"}
{"Smiles str": "O=C1c2ccccc2-c2n[nH]c3cccc1c23", "Test system": "NOMO1", "cell viability": "28.3%"}

Let us move to another entry and its cell viability.
Record request: cell viability value, item NCCOc1cc(C(=O)Nc2cc(OCCN)c3ccccc3n2)nc(C(=O)Nc2cc(OCCN)c3ccccc3n2)c1
56.4%

* * *

Each entry below lists one item and its recorded cell viability value.
- Tested on: SEM cells
- Test name: cell viability relative to DMSO control; higher = less cytotoxic
- Condition details: RPMI 5 mM glucose + 10% FBS; 48 h; 15.4 µM
Expressed in %, but write only the number.

Would you please look over these solved cases?
{"Molecule": "COC(=O)CCC1=C(C)C2=CC3=NC(=CC4=C(C)C(=C([NH]4)C=C\\5N=C(C=C1[NH]2)\\C(=C5C)CCC(O)=O)C=C)\\C6=C\\C=C(/[C@@H](C(=O)OC)[C@@]36C)C(=O)OC", "cell viability (%)": 89.7}
{"Molecule": "CC[C@H]1OC(=O)[C@H](C)[C@@H](O[C@H]2C[C@@](C)(OC)[C@@H](O)[C@H](C)O2)[C@H](C)[C@@H](O[C@@H]2O[C@H](C)C[C@H](N(C)C)[C@H]2O)[C@](C)(O)C[C@@H](C)/C(=N\\OCOCCOC)[C@H](C)[C@@H](O)[C@]1(C)O", "cell viability (%)": 87.9}
{"Molecule": "CCn1c(C(=O)N(C2CC2)C2CC2)cc2c3c(ncn3C)c(Nc3cc(C)n(C)n3)nc21", "cell viability (%)": 91.3}
{"Molecule": "Nc1cc(N2CCCCC2)nc(N)[n+]1[O-]", "cell viability (%)": 58.2}

Let us move to another entry and its cell viability.
Record request: cell viability value, item COc1cccc(OC)c1-c1cc(C(=O)NC2(C(=O)O)C3CC4CC(C3)CC2C4)nn1-c1ccnc2cc(Cl)ccc12 (stereo not given)
92.6

* * *

- Tested on: NOMO1
- Test name: cell viability relative to DMSO control; higher = less cytotoxic
- Condition details: RPMI 5 mM glucose + 10% FBS; 48 h; 5.12 µM
Each entry below lists one item and its recorded cell viability value.
Expressed in %, but write only the number.

Would you please look over these solved cases?
{"Smiles str": "O=C(NOCC1CC1)c1ccc(F)c(F)c1Nc1ccc(I)cc1Cl", "Units text": "%", "Observed measurement": 56.9}
{"Smiles str": "CCCCCN(C)CCC(O)(P(=O)([O-])O)P(=O)(O)O", "Units text": "%", "Observed measurement": 95}

Record request: cell viability value, item COc1c(N2C[C@@H]3CCCN[C@@H]3C2)c(F)cc2c(=O)c(C(=O)O)cn(C3CC3)c12.Cl.O
97.6

* * *

- System: NOMO1
- Test name: cell viability relative to DMSO control; higher = less cytotoxic
- Condition details: RPMI 5 mM glucose + 10% dialyzed FBS; 48 h; 0.0632 µM
Each entry below lists one item and its recorded cell viability value.
Expressed in %, but write only the number.

{"Compound": "CC1=CC/2=C(C=C1C)N(C[C@@H](O)[C@@H](O)[C@@H](O)CO)C/3=N/C(=O)NC(=O)C3=N2", "Units text": "%", "cell viability": 126}
{"Compound": "COc1cc(N2CCN(C)CC2)ccc1Nc1nc(N)c(C(=O)c2c(Cl)cccc2Cl)s1", "Units text": "%", "cell viability": 96.6}
{"Compound": "CCOC(=O)c1c(CSc2ccccc2)n(C)c2cc(Br)c(O)c(CN(C)C)c12", "Units text": "%", "cell viability": 114}
{"Compound": "O=C(CCCN1CCC(O)(c2ccc(Cl)cc2)CC1)c1ccc(F)cc1", "Units text": "%", "cell viability": 125}
{"Compound": "CCN1\\C=C(C(O)=O)/C(=O)C2=C1C(=C(N3CCNC(C)C3)C(=C2)F)F (configuration not stated)", "Units text": "%", "cell viability": 118}
{"Compound": "CCC[C@H](Nc1nc(-c2ccc(NC(=O)NCC)c(OC)c2)ncc1C)c1cccnc1", "Units text": "%", "cell viability": 34.6}
{"Compound": "NC(=O)N1CCC(CC(=O)N2CCC([C@H]3c4ncc(Br)cc4CCc4cc(Cl)cc(Br)c43)CC2)CC1", "Units text": "%", "cell viability": 118}
{"Compound": "C[C@H](NC(=O)[C@@H](O)c1cc(F)cc(F)c1)C(=O)N[C@@H]1C(=O)N(C)c2ccccc2-c2ccccc21", "Units text": "%", "cell viability": 113}

Record request: cell viability value, item COCC(=O)NC/C=C/c1ccc2ncnc(Nc3ccc(Oc4ccc(C)nc4)c(C)c3)c2c1
97.4

Record request: cell viability value, item CC(C)[C@H](O)C(=O)N[C@@H](C)C(=O)N[C@@H]1C(=O)N(C)CCc2ccccc21
110

Record request: cell viability value, item CC(O)(C[S+](=O)([O-])c1ccc(F)cc1)C(=O)Nc1ccc(C#N)c(C(F)(F)F)c1 (configuration not stated)
107
